Ref: patent US4333941A

Tested on: vaccinia virus
experiment: microbe, parasite or virus in culture
Format: cell-based
measurement.conditions: Orthopoxvirus vaccinia, 1 h, read-out: concentration for 50 percent inactivation
pIC50: −log10 of the molar value. Where a name gives a salt, the structure may show the parent alone.
reported.endpoint: pIC50

Any idea what its pIC50 is? The compound is CCCCOc1ccc(C(=O)CCN2CCCCC2)cc1 [Dyclonine . HCl]
≥ 2.70

====

In this section, each of the compounds is paired with its reported log10(IC50).
Test system: HSV-1
experiment: Inactivation of HSV-1, plaque assay on Vero or HeLa cells (Example 1)
Type: cell-based, herpes simplex virus type I
measurement.conditions: Human alphaherpesvirus 1, 1 h, one hour at 37° C., versus water control, read-out: Concentration Producing 50% Virus Inhibition
Counter-ions that a name gives are not always drawn.
Response schema: value (number) is log10 of IC50 in units of µM.

Reference set (6 entries):
COc1ccc(C(=O)CCN2CCCCC2)cc1 [HCl]: 2.10
CCCCOc1ccc(C(=O)CCN2CCOCC2)cc1 [HCl]: 2.10
O=C(CCN1CCCCC1)c1cccc(Cl)c1 [HCl]: 2.10
CC(C)COc1ccc(C(=O)CCN2CCCCC2)cc1 [HCl]: 2.30
CCOc1ccc(C(=O)CCN2CCCCC2)cc1 [HCl]: 3.18
CCCCOc1ccc(OCCCN2CCOCC2)cc1 [pramoxine . HCl]: 2.83

Any idea what its log10(IC50) is? The compound is CC(=O)C(CN1CCCCC1)c1ccccc1 (stereo not drawn) [3-Phenyl-4-piperidino-2-butanone . HCl]
2.74

Any idea what its log10(IC50) is? The compound is CCCCOc1ccc(C(=O)CCN2CCCCC2)cc1 [Dyclonine . HCl]
2.10

Any idea what its log10(IC50) is? The compound is CCCCOc1cc(C(=O)NCCN(CC)CC)c2ccccc2n1 [dibucaine . HCl]
2.90

Any idea what its log10(IC50) is? The compound is CCCOc1ccc(C(=O)CCN2CCCCC2)cc1 [HCl]
2.60
